# Test system: SpTbr T-box DNA-binding domain (GST fusion);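 note: protein at 200 nM in PBS on universal double-stranded arrays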
# Sequence: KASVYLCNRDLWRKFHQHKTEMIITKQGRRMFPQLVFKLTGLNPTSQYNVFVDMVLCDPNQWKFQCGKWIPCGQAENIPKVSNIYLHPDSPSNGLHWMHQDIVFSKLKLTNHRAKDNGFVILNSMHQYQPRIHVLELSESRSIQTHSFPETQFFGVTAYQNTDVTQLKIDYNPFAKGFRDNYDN
# assay overview: PBM E-score of 8-mer (E-score (dimensionless, -0.5 to 0.5)); Tbr is Tbrain of the sea star Patiria miniata (Pm) or the sea urchin Strongylocentrotus purpuratus (Sp); higher = stronger binding preference
# condition summary: the construct has about 5 more residues each side
In all, about 33,000 sequences were measured (“E-score (dimensionless, -0.5 to 0.5)”: median about -0.046, highest 2% from about 0.36 on). Shown is part of a subset that was picked to be rich in the highest values.
Would you kindly list PBM E-score of 8-mer for each of these sequences?
Numbers only.

| seq string | PBM E-score of 8-mer |
| --- | --- |
| ATCACCCC | 0.232 |
| AACACCAT | 0.377 |
| CAGTGCTC | 0.0319 |
| ACTAACAG | 0.193 |
| TGTGAAAA | 0.394 |
| AAACGTGT | 0.368 |
| ACCACCAT | 0.108 |
| AACACCCA | 0.293 |

Can you give me PBM E-score of 8-mer for all of these, one by one?
1. GCGGGTGA
2. GCTGACAC
3. AGGTAAAA
4. AGGCGCAT
5. CAGGTGAG
6. ACGGTGAT
7. ACACGTGG
8. GAACTAAC

### Response
0.261
0.386
-0.0157
-0.182
0.399
0.115
0.299
0.135

Can you give me PBM E-score of 8-mer for all of these, one by one?
1. CCTGACAA
2. GCAGTGGA
3. GAGTATGA
4. CGTGAACC
5. AAACGTGA
6. CCTGACAC
7. CCTAACAA

### Response
[0.153, -0.261, -0.047, 0.353, 0.156, 0.427, 0.161]

Can you give me PBM E-score of 8-mer for all of these, one by one?
1. GTGGCCAC
2. GACCCGTA
3. AGATTCCG
4. GGTGAAAA

### Response
1: 0.225; 2: -0.0138; 3: -0.0246; 4: 0.126

Can you give me PBM E-score of 8-mer for all of these, one by one?
1. AGCGTGAT
2. AGGTCAAT
3. TGAGCCAA
4. ACTAACAC

### Response
[0.28, -0.202, -0.229, 0.402]
